Ref: the RNAGym collection of RNA variant scans (doi:10.1073/pnas.2313332121)

B1: TPR 5TU (parent)
chain: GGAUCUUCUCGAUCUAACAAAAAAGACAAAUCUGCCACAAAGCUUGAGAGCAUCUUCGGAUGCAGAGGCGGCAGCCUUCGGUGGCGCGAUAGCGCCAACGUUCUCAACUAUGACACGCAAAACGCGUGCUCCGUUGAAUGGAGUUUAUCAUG

- Variants of: B1
- assay-name: polymerase ribozyme fitness, log enrichment relative to wild type (log ratio); higher = more active; in vitro selection for triplet polymerase activity
Variants at the floor of the assay were thinned out.
endpoint-label: polymerase ribozyme fitness (log ratio)
One number for each entry.

Answered cases to consult:
>  <sequence-variant>
A16G U144G

>  <endpoint-label>
polymerase ribozyme fitness (log ratio)

>  <reported-measurement>
0.162

$$$$
>  <sequence-variant>
C10G G92U

>  <endpoint-label>
polymerase ribozyme fitness (log ratio)

>  <reported-measurement>
-3.24

$$$$
>  <sequence-variant>
G71C G92U

>  <endpoint-label>
polymerase ribozyme fitness (log ratio)

>  <reported-measurement>
-3.46

$$$$

Give polymerase ribozyme fitness (log ratio) for each listed item.
1. C96G C108U
2. A73U C118U
3. U53A C85U

OUTPUT:
[-2.5, -0.982, -1.4]
